# protocol-conditions: in DMF, 318.15 K
quantity: solubility (mole fraction)
Numbers only.

Kindly note the recorded solubility (mole fraction) for `O=C(OCC1c2ccccc2-c2ccccc21)ON1C(=O)CCC1=O` , which is 0.0298

---

# protocol-conditions: in DMF, 313.15 K
quantity: solubility (mole fraction)
Numbers only.

Kindly note the recorded solubility (mole fraction) for `O=C(OCC1c2ccccc2-c2ccccc21)ON1C(=O)CCC1=O` , which is 0.023

---

# protocol-conditions: in DMSO, 308.15 K
quantity: solubility (mole fraction)
Answers are plain numbers.

Kindly note the recorded solubility (mole fraction) for `O=C(OCC1c2ccccc2-c2ccccc21)ON1C(=O)CCC1=O` , which is 0.0107

---

# protocol-conditions: in water, 313.15 K
quantity: solubility (mole fraction)
Numbers only.

Kindly note the recorded solubility (mole fraction) for `O=C(OCC1c2ccccc2-c2ccccc21)ON1C(=O)CCC1=O` , which is 1.49e-05

---

# protocol-conditions: in ethanol, 308.15 K
quantity: solubility (mole fraction)
Numbers only.

Kindly note the recorded solubility (mole fraction) for `O=C(OCC1c2ccccc2-c2ccccc21)ON1C(=O)CCC1=O` , which is 0.00115

---

# protocol-conditions: in water, 328.15 K
quantity: solubility (mole fraction)
Numbers only.

Kindly note the recorded solubility (mole fraction) for `O=C(OCC1c2ccccc2-c2ccccc21)ON1C(=O)CCC1=O` , which is 2.78e-05

---

# protocol-conditions: in DMF, 298.15 K
quantity: solubility (mole fraction)
One number for each entry.

Kindly note the recorded solubility (mole fraction) for `O=C(OCC1c2ccccc2-c2ccccc21)ON1C(=O)CCC1=O` , which is 0.00964

---

# protocol-conditions: in ethylene glycol, 328.15 K
quantity: solubility (mole fraction)
Answers are plain numbers.

Kindly note the recorded solubility (mole fraction) for `O=C(OCC1c2ccccc2-c2ccccc21)ON1C(=O)CCC1=O` , which is 0.00111

---

# protocol-conditions: in DMSO, 298.15 K
quantity: solubility (mole fraction)

Kindly note the recorded solubility (mole fraction) for `O=C(OCC1c2ccccc2-c2ccccc21)ON1C(=O)CCC1=O` , which is 0.00641

---

# protocol-conditions: in DMF, 303.15 K
quantity: solubility (mole fraction)
Numbers only.

Kindly note the recorded solubility (mole fraction) for `O=C(OCC1c2ccccc2-c2ccccc21)ON1C(=O)CCC1=O` , which is 0.0132

---

# protocol-conditions: in ethanol, 323.15 K
quantity: solubility (mole fraction)
One number for each entry.

Kindly note the recorded solubility (mole fraction) for `O=C(OCC1c2ccccc2-c2ccccc21)ON1C(=O)CCC1=O` , which is 0.00177

---

# protocol-conditions: in DMSO, 303.15 K
quantity: solubility (mole fraction)
Answers are plain numbers.

Kindly note the recorded solubility (mole fraction) for `O=C(OCC1c2ccccc2-c2ccccc21)ON1C(=O)CCC1=O` , which is 0.0084

---

# protocol-conditions: in ethanol, 313.15 K
quantity: solubility (mole fraction)
One number for each entry.

Kindly note the recorded solubility (mole fraction) for `O=C(OCC1c2ccccc2-c2ccccc21)ON1C(=O)CCC1=O` , which is 0.00134

---

# protocol-conditions: in DMSO, 318.15 K
quantity: solubility (mole fraction)
Answers are plain numbers.

Kindly note the recorded solubility (mole fraction) for `O=C(OCC1c2ccccc2-c2ccccc21)ON1C(=O)CCC1=O` , which is 0.0167

---

# protocol-conditions: in water, 318.15 K
quantity: solubility (mole fraction)

Kindly note the recorded solubility (mole fraction) for `O=C(OCC1c2ccccc2-c2ccccc21)ON1C(=O)CCC1=O` , which is 1.84e-05
